test system: SNB-19 CNS; assay: NCI-60 one-dose screen, 48 h (100 = growth as untreated, 0 = no growth, -100 = all killed); conditions: 10 µM unless noted
This is part of a sample that, as a whole, favours compounds with a hit. Of some 83,000 tested, about 20% had one in any assay. *1 amine or outer side, *2 acyl side, *3 side chain or, on linkers, in order; H or OH if unused. Where a SMILES comes first, the peptide text is derived from it. [ ]: non-standard residue; d: D form. The star is where a group is joined. X5 = CCC(=O)CC1CC(C)CC(C(=O)[*:2])N1[*:1]; X4 = CCCCCCCCC(C)C(=O)*; Aib = CC(C)(N)C(=O)O; X6 = CC(CN(C)CCO)N*
Mark Criterion met only for growth values smaller than 70%; exact matches and larger values are Criterion not met.

State whether 70% exceeds growth recorded for `N=C1C=C(N)C(=O)c2ccccc21` .
Criterion met

State whether 70% exceeds growth recorded for `NC1=C(Br)C(=O)c2ncccc2C1=O` .
Criterion met

State whether 70% exceeds growth recorded for N#CC(I)CS(=O)(=O)c1ccccc1 (centres undefined) .
Criterion not met

State whether 70% exceeds growth recorded for `CC1(C)CCCC2=C1C(=O)N(SC(Cl)(Cl)Cl)C2=O` .
Criterion not met

State whether 70% exceeds growth recorded for CCCCCCCCC(C)C(=O)N1CCCC1C(=O)N1C(CC(=O)CC)CC(C)CC1C(=O)NC(C)C(=O)NC(C)(C)C(=O)NC(C)(C)C(=O)NC(C(=O)NC(C)C(=O)NC(C)(C)C(=O)NC(C)(C)C(=O)NC(C)CN(C)CCO)C(C)CC (centres undefined) (X4-P[X5]A[Aib][Aib]IA[Aib][Aib]-X6; configuration not given here) .
Criterion met

State whether 70% exceeds growth recorded for `Oc1ccc2c(c1)CCc1ccccc1-2` .
Criterion not met

State whether 70% exceeds growth recorded for `NC(=S)N/N=C\c1nccc2c(C(F)(F)F)cccc12` .
Criterion met

State whether 70% exceeds growth recorded for CCN1CCCC(Nc2cc(C)nc(/N=C(/N)Nc3ccc(Cl)c(Cl)c3)n2)C1 (centres undefined) .
Criterion met
